System: A498
Assay: NCI tumour cell line growth inhibition, 48 h
The source made the active and inactive calls. No stated cut-off is given here; in the data, active = GI50 up to about 1.1 µM and inactive = higher.

# compound, GI50
records = [
    ("O=C1C(c2ccccc2)=[N+]([O-])c2ccc(Cl)cc21", "> 100 µM (inactive)"),
    ("O=[N+]([O-])c1cccc2nccc(NCCN3CCOCC3)c12", "13.2 µM (inactive)"),
    ("O=C1OC(c2ccccc2)=N/C1=C/NC(Cc1c[nH]c2ccccc12)C(=O)O (stereo not drawn)", "> 100 µM (inactive)"),
]

* * *

Measured GI50, listed per entry for reference.
Test system: HOP-62
Experiment: NCI tumour cell line growth inhibition, 48 h
The source made the active and inactive calls. No stated cut-off is given here; in the data, active = GI50 up to about 1.1 µM and inactive = higher.

# molecule, GI50
rows = [
    ("O=C1NC(Nc2ccccc2Cl)=N/C1=C\\c1c(Cl)cccc1Cl", "39.7 µM (inactive)"),
    ("NS(=O)(=O)c1nnc(NS(=O)(=O)c2cccc3cccnc23)s1", "> 100 µM (inactive)"),
    ("Cc1ccc([S+]([O-])c2sccc2C=O)cc1 (stereo not given)", "31.3 µM (inactive)"),
    ("CC(C)Cn1cnnc1NS(=O)(=O)c1cc(C(=O)NN)c(Cl)cc1S", "> 10 µM (inactive)"),
    ("CCCC(CCC)C(=O)O", "> 100 µM (inactive)"),
    ("CN(C)C(=O)N(CCCl)N=O", "> 100 µM (inactive)"),
    ("Clc1cccc(Cl)c1C1SCC2=Nc3ccccc3CN21 (stereo not given)", "19.5 µM (inactive)"),
    ("O=C1c2ccccc2C(=O)c2nc3c(O)cccc3cc21", "38.9 µM (inactive)"),
    ("COc1ccc(-n2c3c(c4cc(O)ccc42)C(=O)c2ccccc2C3=O)cc1", "2.26 µM (inactive)"),
    ("C/C(=C/CC[C@]1(CO)CC[C@]2(CO)[C@H](CC[C@@H]3[C@@]4(C)CC[C@H](OC5OCC(O)C(O)C5OC5OC(CO)C(O)C(O)C5O)C(C)(C)[C@@H]4CC[C@]32C)[C@H]1O)CO (stereo not given in full)", "> 100 µM (inactive)"),
    ("Clc1ccc(Cl)c(SCCCN2CCNCC2)c1", "18 µM (inactive)"),
    ("NC1CC(Cl)c2c(Cl)sc(Cl)c21 (stereo not given)", "> 100 µM (inactive)"),
    ("O=C(CSCC(=O)N/N=C/c1ccncc1)N/N=C/c1ccncc1", "> 100 µM (inactive)"),
    ("CC(=O)OC[C@@]12Cc3ccc(C)c(O)c3[C@]1(C)[C@@H](OC(C)=O)[C@]1(O)[C@H]([C@@H](OC(=O)c3ccccc3)[C@@H](C)[C@H]1OC(C)=O)[C@H]2OC(C)=O", "> 50 µM (inactive)"),
    ("CCOC(=O)CCC(=O)C1c2cccc(O)c2C(=O)c2c(O)cccc21", "1.73 µM (inactive)"),
    ("O=C1C(Cl)=C(Cl)C(=O)N1C1C2CC3CC(C2)CC1C3 (stereo not given)", "> 100 µM (inactive)"),
    ("Nc1nc(Cl)c(N)c(NC23CC4CC(CC(C4)C2)C3)n1", "1.87 µM (inactive)"),
    ("CC(C)C1C(=O)N(c2c(F)c(F)c(F)c(F)c2F)C(=S)N1CC[S+]([O-])c1ccccc1 (stereo not given)", "23.9 µM (inactive)"),
    ("Nc1cc(CO)cc(Nc2nc3ccc(Cl)cc3c3[nH]c4ccccc4c23)c1", "7.19 µM (inactive)"),
    ("CC(C)CCC[C@@H](C)C1CCC2[C@@H]3CC=C4C[C@@H](C(=O)NCC[N+](C)(C)CCCS(=O)(=O)[O-])CC[C@]4(C)C3CC[C@@]21C (stereo not given in full)", "24 µM (inactive)"),
]
